# Lookup of reported Inh (% of Ctl) 10 μM keyed by entry
molecular target: rat PGT (Rattus norvegicus (Rat)); assay: [3H]PGE2 uptake inhibition in MDCK cells stably transfected with rat PGT (percent inhibition and IC50); type: cell-based; conditions: 10 μM compound; inhibition of [3H]PGE2 uptake

MOLECULE	RECORDED VALUE
O=C(O)CCCCCCNc1nc(Nc2ccccc2)nc(Nc2ccc(O)cc2)n1 [compound 52]	1.8 % of Ctl
O=C(NCCOCCOCCNc1nc(Nc2ccccc2)nc(Nc2ccc(O)cc2)n1)c1ccc(F)cc1 [compound 30]	78.25 % of Ctl

Inh (% of Ctl) 10 μM for COC(=O)CCCCCCNC(=O)c1ccc(Nc2nc(NCCOCCOCCNC(=O)c3ccccc3)nc(Nc3ccc(O)cc3)n2)cc1 [compound 43] ?
84.1 % of Ctl
